Test: chemical genetic growth profiling, strain panel (AID 1159580);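 note: tested at 20 µM; growth read once vehicle control cultures reached saturation at 30 °C; 1 = growth at the plate median or of vehicle wells; lower values mean less growth of the strain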
Details: S. cerevisiae deletion strains, growth OD, locus YDR101C, strain arx1, hits give low values
About 2,000 (36%) of roughly 5,500 compounds were called active. Not shown: some 18% with an inconclusive outcome. This is one part of the list.
Quick reference: normalized growth of the listed items.
Give the figure only, with no unit attached.

Worked cases, answers included:
MOLECULE	QUANTITATIVE_READOUT
Cc1ccnc(NS(=O)(=O)c2ccc(N)cc2)n1	1.01
C[C@@H]1CC[C@H]2[C@@H](C)C(O)O[C@@H]3O[C@@]4(C)CC[C@@H]1[C@]32OO4 (stereo partly drawn)	0.459
COC(=O)/C(C)=C\CC12OC(C)(C)C3CC(C=C4C(=O)c5c(O)c6c(c(CCC(C)(C)Cl)c5OC431)OC1(C)CCC(=C(C)C)C6C1)C2=O (stereo not drawn)	0.992
CC(C)=CCCC1(C)C=Cc2c(O)c3c(c(CC=C(C)C)c2O1)OC12C(=CC4CC1C(C)(C)OC2(C/C=C(/C)C(=O)O)C4=O)C3=O (stereo not drawn)	0.93
CC(C)=CCCC1(C)C=Cc2c(O)c3c(c(CC=C(C)C)c2O1)OC12C(=CCCC1C(C)(C)O[C@@]2(C/C=C(\C)C(=O)O)C(=O)O)C3=O (stereo partly drawn)	0.869
CC(C)=CCCC1(C)C=Cc2c(O)c3c(c(CC=C(C)C)c2O1)OC12C(=CC4CC1C(C)(C)OC2(C/C=C(\C)C(N)=O)C4=O)C3=O (stereo not drawn)	0.958

Given item CCCOc1ccccc1-c1nc2n[nH]nc2c(=O)[nH]1 , the value recorded as its normalized growth is 1

Given item NC12CC3CC(CC(C3)C1)C2 , the value recorded as its normalized growth is 1.03

---

Quick reference: normalized growth of the listed items.
Assay: chemical genetic growth profiling, strain panel (AID 1159580)
Conditions: S. cerevisiae deletion strains, growth OD, locus YOR231W, strain MKK1, hits give low values
In all, about 5,500 compounds went through this assay and about 2,000 (36%) were called active. Inconclusive results (about 18%) are left out. This is one part of the list.

Given item NC(Cc1c[nH]c2ccccc12)C(=O)O (stereo unspecified) , the value recorded as its normalized growth is 0.946 (inactive)

Given item O=C(NCCNc1ncc(C(F)(F)F)cc1Cl)C(F)(F)Sc1ccccc1 , the value recorded as its normalized growth is 0.939 (inactive)

Given item O=C(NCC(c1ccccc1)c1c[nH]c2ccccc12)c1ccc(C(F)(F)F)cc1 (stereo unspecified) , the value recorded as its normalized growth is 1.02 (inactive)

---

Assay: chemical genetic growth profiling, strain panel (AID 1159580);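 note: tested at 20 µM; growth read once vehicle control cultures reached saturation at 30 °C; 1 = growth at the plate median or of vehicle wells; lower values mean less growth of the strain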
Conditions: S. cerevisiae deletion strains, growth OD, locus YGL078C, strain dbp3, hits give low values
Out of some 5,500 compounds screened, about 2,000 (36%) were called active. Another 18% or so got no clear call; they are omitted. The list shows a part of the results.
Quick reference: normalized growth of the listed items.

Worked cases, answers included:
COMPOUND	normalized growth
OC(CCN1CCCC1)(c1ccccc1)C1CCCCC1 (stereo not drawn)	0.985 (inactive)
COC(=O)C[C@H]1C(C)(C)C2(O)OC34CC2C(=O)[C@]1(C)C3CC[C@]1(C)C4=CC(=O)O[C@H]1c1ccoc1 (stereo partly drawn)	1.02 (inactive)

Here is the next item to consider.
Given item OC(CCN1CCCCC1)(c1ccccc1)C1CCCCC1 (stereo not drawn) , the value recorded as its normalized growth is 0.991 (inactive)

---

Assay: chemical genetic growth profiling, strain panel (AID 1159580);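 note: tested at 20 µM; growth read once vehicle control cultures reached saturation at 30 °C; 1 = growth at the plate median or of vehicle wells; lower values mean less growth of the strain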
Conditions: S. cerevisiae deletion strains, growth OD, locus YLR330W, strain CHS5
The whole screen tested about 5,500 compounds, of which about 2,000 (36%) were called active. About 18% were inconclusive and are not listed. Rule as the data show it: active = normalized growth mostly below about 0.91 (no sharp cut-off); inconclusive = no clear call, values can overlap the other calls; inactive = mostly above about 0.92. The list shows a part of the results.
Form entry, call: pick from active, inactive

Answered cases to consult:
COMPOUND	ASSIGNED_CATEGORY
COC1=C[C@@H]2[C@@H]3Cc4ccc(OC)c(O)c4[C@]2(CCN3C)CC1=O	inactive
N#CC(O[C@@H]1O[C@H](CO[C@@H]2O[C@H](CO)[C@@H](O)[C@H](O)[C@H]2O)[C@@H](O)[C@H](O)[C@H]1O)c1ccccc1 (some centres undefined)	inactive
CO[C@@]12[C@@H]3NC3CN1C1=C(C(=O)C(N)=C(C)C1=O)[C@@H]2COC(N)=O (some centres undefined)	inactive
COc1ccc2c(c1)c(CC(=O)O)c(C)n2C(=O)c1ccc(Cl)cc1	inactive
C[C@@H]1CC[C@H]2[C@@H](C)C(O)O[C@@H]3O[C@@]4(C)CC[C@@H]1[C@]32OO4 (some centres undefined)	active

Can you look up the reported call for C[C@@H]1C(=O)O[C@H]2[C@H]1CC[C@@]1(C)C=CC(=O)[C@@]3(C)O[C@@]213 for me?
inactive

Can you look up the reported call for CCOP(=S)(OCC)Oc1cc(C)nc(C(C)C)n1 for me?
inactive

Can you look up the reported call for O=C(COc1ccc(Cl)cc1)N1CCN(Cc2ccc3c(c2)OCO3)CC1 for me?
inactive

Can you look up the reported call for NCCC(=O)N[C@@H](Cc1cnc[nH]1)C(=O)O for me?
inactive

---

Assay: chemical genetic growth profiling, strain panel (AID 1159580);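 note: tested at 20 µM; growth read once vehicle control cultures reached saturation at 30 °C; 1 = growth at the plate median or of vehicle wells; lower values mean less growth of the strain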
Conditions: S. cerevisiae deletion strains, growth OD, locus YLL001W, strain dnm1
Hit rate of the full screen: of about 5,500 compounds, about 2,000 (36%) were called active. Roughly 18% stayed inconclusive and do not appear here. Rule as the data show it: active = normalized growth mostly below about 0.91 (no sharp cut-off); inconclusive = no clear call, values can overlap the other calls; inactive = mostly above about 0.92. This is one part of the list. Where a SMILES comes first, the peptide text is derived from it. Bridges are numbered along the chain shown (N, C = ends). [ ]: non-standard residue; d: D form. The star is where a group is joined. ξ: configuration not given here. ξDab(CH2SO3H) = NC(CCNCS(=O)(=O)O)C(=O)O; Heptanoyl(6-Me) = CC(C)CCCCC(=O)*; Dab = NCC[CH](N)C(=O)O
Form entry, call: pick from class 1 = active, class 0 = inactive

Answered cases to consult:
MOLECULE	ASSIGNED_CATEGORY
CCC(C)C1NC(=O)C(CCNCS(=O)(=O)O)NC(=O)C(NC(=O)C(CCNCS(=O)(=O)O)NC(=O)C(NC(=O)C(CCNCS(=O)(=O)O)NC(=O)CCCCC(C)C)C(C)O)CCNC(=O)C(C(C)O)NC(=O)C(CCNCS(=O)(=O)O)NC(=O)C(CCNCS(=O)(=O)O)NC(=O)C(C(C)CC)NC1=O (stereo not given) ({Heptanoyl(6-Me)}-[ξDab(CH2SO3H)]T[ξDab(CH2SO3H)][Dab][ξDab(CH2SO3H)]II[ξDab(CH2SO3H)][ξDab(CH2SO3H)]T; lactam 4-C; configuration not given here)	class 0
CO[C@@]12[C@@H]3NC3CN1C1=C(C(=O)C(N)=C(C)C1=O)[C@@H]2COC(N)=O (stereo not given in full)	class 0
O=C(Nc1ccc(C(=O)O)c(O)c1)c1ccccc1	class 0
CC1(C)CC[C@]2(C(=O)O)CC[C@]3(C)C(=CCC4[C@@]5(C)CC[C@@H](O)C(C)(C)C5CC[C@]43C)C2C1 (stereo not given in full)	class 0
COC(=O)Nc1nc2ccc(C(=O)c3ccccc3)cc2[nH]1	class 0
C#C[C@]1(O)CCC2C3CCC4=CC(=O)CC[C@@H]4C3CC[C@@]21CC (stereo not given in full)	class 0

Can you look up the reported call for NNC(=O)c1ccncc1 for me?
class 0

Can you look up the reported call for O=C(CNC(=O)c1ccc(Cl)cc1)NO for me?
class 0

Can you look up the reported call for O=c1oc2cc(O)ccc2s1 for me?
class 0

Can you look up the reported call for C[C@@H]1OC(O[C@H]2C(O[C@H]3CC[C@@]4(C)C(CC[C@]5(C)C4CC=C4C6CC(C)(C)CC[C@]6(C(=O)O)CC[C@]45C)[C@]3(C)CO)OC[C@H](O)[C@@H]2O)[C@H](O)[C@H](O)[C@H]1O (stereo not given in full) for me?
class 1

Can you look up the reported call for CC1(C)CC[C@@]2(C(=O)O)C(C1)C1=CCC3[C@@]4(C)CC[C@H](O)C(C)(C)C4CC[C@@]3(C)[C@]1(C)C[C@@H]2O (stereo not given in full) for me?
class 0

Can you look up the reported call for CC(=O)O[C@@H]1CC[C@@]2(C)C(CC[C@]3(C)C2CC=C2C4CC(C)(C)CC[C@]4(C(=O)O)CC[C@]23C)C1(C)C (stereo not given in full) for me?
class 0

Can you look up the reported call for COc1ccc2c(c1)c(CC(=O)O)c(C)n2C(=O)c1ccc(Cl)cc1 for me?
class 0

Can you look up the reported call for CCOP(=S)(OCC)Oc1nc(Cl)c(Cl)cc1Cl for me?
class 0

Can you look up the reported call for COc1cccc2c1C(=O)c1c(O)c3c(c(O)c1C2=O)C[C@@](O)(C(C)=O)C[C@@H]3O[C@H]1C[C@H](N)[C@H](O)[C@H](C)O1 for me?
class 0

Can you look up the reported call for Nc1c2ccccc2nc2ccccc12 for me?
class 1

Can you look up the reported call for CC(=O)O[C@H]1CC[C@@]2(C)C(CC[C@]3(C)C2CC=C2C4CC(C)(C)CC[C@]4(C)CC[C@]23C)C1(C)C (stereo not given in full) for me?
class 0

Can you look up the reported call for O=c1ccc2ccc(O)cc2o1 for me?
class 0

Can you look up the reported call for Cc1cc(O)cc(O)c1C(=O)O for me?
class 0

Can you look up the reported call for CC(C)(C#N)O[C@@H]1O[C@H](CO)[C@@H](O)[C@H](O)[C@H]1O for me?
class 0

Can you look up the reported call for C[C@@H]1C(=O)O[C@H]2[C@H]1CC[C@@]1(C)C=CC(=O)[C@@]3(C)O[C@@]213 for me?
class 0

Can you look up the reported call for COc1ccc2c(c1)c(CC(=O)OCC(=O)O)c(C)n2C(=O)c1ccc(Cl)cc1 for me?
class 0

Can you look up the reported call for COc1ccc2[nH]cc(CCN)c2c1 for me?
class 0

Can you look up the reported call for CC(CC(=O)C1OC1(C)C)C1C(=O)CC2(C)C3=CCC4C(C)(C)C(OC5OCC(O)C(O)C5O)CCC45CC35C(O)CC12C (stereo not given) for me?
class 0

Can you look up the reported call for CC(C)(Oc1ccc(CCNC(=O)c2ccc(Cl)cc2)cc1)C(=O)O for me?
class 0

Can you look up the reported call for O=C1C(O)=C(O)C(=O)C(O)=C1O for me?
class 0

Values compiled from PubChem BioAssay AID1159580.
